Molecular target: Peptidoglycan D,D-transpeptidase FtsI (Pseudomonas aeruginosa (strain PA7), UniProt A6VB91)
Sequence (A6VB91 whole entry): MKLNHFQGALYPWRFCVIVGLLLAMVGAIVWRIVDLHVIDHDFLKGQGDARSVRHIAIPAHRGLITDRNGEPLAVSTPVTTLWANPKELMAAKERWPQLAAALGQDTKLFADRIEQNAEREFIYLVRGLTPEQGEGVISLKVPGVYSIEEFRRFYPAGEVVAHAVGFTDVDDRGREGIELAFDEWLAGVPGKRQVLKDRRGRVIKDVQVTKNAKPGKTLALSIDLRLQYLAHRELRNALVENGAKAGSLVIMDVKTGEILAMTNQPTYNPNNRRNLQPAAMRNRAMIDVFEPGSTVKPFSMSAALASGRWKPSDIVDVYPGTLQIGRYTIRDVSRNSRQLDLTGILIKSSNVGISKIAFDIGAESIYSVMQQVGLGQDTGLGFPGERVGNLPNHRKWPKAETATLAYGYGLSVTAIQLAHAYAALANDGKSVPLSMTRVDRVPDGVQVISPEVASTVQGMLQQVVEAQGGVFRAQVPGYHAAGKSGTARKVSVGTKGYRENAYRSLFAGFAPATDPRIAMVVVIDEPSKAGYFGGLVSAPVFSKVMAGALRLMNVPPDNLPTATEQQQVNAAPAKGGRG
Assay: IC50 Assay
Details: pH 7.2; 25 °C
VALUE KIND: IC50 (µM)
Please respond with the number in µM and leave the unit unwritten.

Examples with their reported IC50 follow.
CCN1CCN(C(=O)N[C@@H](C(=O)N[C@H](C(=O)O)[C@@H]2N[C@@H](C(=O)O)C(C)(C)S2)C2C=CC=CC2)C(=O)C1=O (stereo partly drawn) ... 196
CCN1CCN(C(=O)N[C@@H](C(=O)N[C@H](C(=O)O)[C@H]2N[C@@H](C(=O)O)C(C)(C)S2)C2C=CC=CC2)C(=O)C1=O (stereo partly drawn) ... 126

Next compound, please.
For the compound shown here, CCN1CCN(C(=O)N[C@@H](C(=O)N[C@@H]2C(=O)N3[C@@H]2SC(C)(C)[C@@H]3C(=O)O)c2ccccc2)C(=O)C1=O , give the reported IC50.
0.166
